- Tested on: Staphylococcus aureus X778
- assay: MIC, standard broth micro-dilution assay
- Format: cell-based
Entries and their measured MIC follow.

INSERT INTO assay_data (molecule, target_desc, readout_type, result) VALUES
  ('CNC(CC(C)C)C(=O)NC1C(=O)NC(CC(N)=O)C(=O)NC2C(=O)NC3C(=O)NC(C(=O)NC(C(=O)O)c4cc(O)cc(O)c4-c4cc3ccc4O)C(OC3CC(C)(N)C(O)C(C)O3)c3ccc(c(Cl)c3)Oc3cc2cc(c3OC2OC(CO)C(O)C(O)C2OC2CC(C)(NCc3cc(-c4ccccc4)nc4ccc(OC)cc34)C(O)C(C)O2)Oc2ccc(cc2Cl)C1O (stereo not drawn) [Compound 45, 4-[2-phenyl-6-methoxy]quinoylmethyl]', 'Staphylococcus aureus X778', 'MIC', '0.25 µg/mL'),
  ('CNC(CC(C)C)C(=O)NC1C(=O)NC(CC(N)=O)C(=O)NC2C(=O)NC3C(=O)NC(C(=O)NC(C(=O)O)c4cc(O)cc(O)c4-c4cc3ccc4O)C(OC3CC(C)(N)C(O)C(C)O3)c3ccc(c(Cl)c3)Oc3cc2cc(c3OC2OC(CO)C(O)C(O)C2OC2CC(C)(NCc3ccc(C(c4ccccc4)c4ccccc4)cc3)C(O)C(C)O2)Oc2ccc(cc2Cl)C1O (stereo not drawn)', 'Staphylococcus aureus X778', 'MIC', '2 µg/mL'),
  ('CNC(CC(C)C)C(=O)NC1C(=O)NC(CC(N)=O)C(=O)NC2C(=O)NC3C(=O)NC(C(=O)NC(C(=O)O)c4cc(O)cc(O)c4-c4cc3ccc4O)C(OC3CC(C)(N)C(O)C(C)O3)c3ccc(c(Cl)c3)Oc3cc2cc(c3OC2OC(CO)C(O)C(O)C2OC2CC(C)(NCc3ccc4c(c3)OCO4)C(O)C(C)O2)Oc2ccc(cc2Cl)C1O (stereo not drawn)', 'Staphylococcus aureus X778', 'MIC', '≤ 0.06 µg/mL'),
  ('CNC(CC(C)C)C(=O)NC1C(=O)NC(CC(N)=O)C(=O)NC2C(=O)NC3C(=O)NC(C(=O)NC(C(=O)O)c4cc(O)cc(O)c4-c4cc3ccc4O)C(OC3CC(C)(N)C(O)C(C)O3)c3ccc(c(Cl)c3)Oc3cc2cc(c3OC2OC(CO)C(O)C(O)C2OC2CC(C)(NCc3cccc(Oc4ccccc4)c3)C(O)C(C)O2)Oc2ccc(cc2Cl)C1O (stereo not drawn)', 'Staphylococcus aureus X778', 'MIC', '≤ 0.06 µg/mL'),
  ('CNC(CC(C)C)C(=O)NC1C(=O)NC(CC(N)=O)C(=O)NC2C(=O)NC3C(=O)NC(C(=O)NC(C(=O)O)c4cc(O)cc(O)c4-c4cc3ccc4O)C(OC3CC(C)(N)C(O)C(C)O3)c3ccc(c(Cl)c3)Oc3cc2cc(c3OC2OC(CO)C(O)C(O)C2OC2CC(C)(NCC3CC=CCC3)C(O)C(C)O2)Oc2ccc(cc2Cl)C1O (stereo not drawn)', 'Staphylococcus aureus X778', 'MIC', '≤ 0.06 µg/mL');

Shifting focus to the molecule that follows.
Input: # MIC lookup, item CNC(CC(C)C)C(=O)NC1C(=O)NC(CC(N)=O)C(=O)NC2C(=O)NC3C(=O)NC(C(=O)NC(C(=O)O)c4cc(O)cc(O)c4-c4cc3ccc4O)C(OC3CC(C)(N)C(O)C(C)O3)c3ccc(c(Cl)c3)Oc3cc2cc(c3OC2OC(CO)C(O)C(O)C2OC2CC(C)(NCc3ccc(C(O)c4ccccc4)cc3)C(O)C(C)O2)Oc2ccc(cc2Cl)C1O (stereo not drawn) [Compound 109, 4-[alpha-hydroxybenzyl]benzyl]
Output: ≤ 0.06 µg/mL

Measured values drawn from patent US5843889A for this set.
